Source of measurements: BigSolDB 2.1

STUDY_CONDITIONS: in methanol, 283.15 K

TEST_SMILES | solubility (mole fraction)
O=[N+]([O-])c1cn[nH]c1 | 0.0517

---

STUDY_CONDITIONS: in ethanol, 288.15 K

TEST_SMILES | solubility (mole fraction)
O=[N+]([O-])c1cn[nH]c1 | 0.045

---

STUDY_CONDITIONS: in water, 290.65 K
MEASURE_NAME: solubility (mole fraction)

TEST_SMILES | REPORTED_RESULT
O=[N+]([O-])c1cn[nH]c1 | 0.00286

---

STUDY_CONDITIONS: in ethanol, 290.65 K

TEST_SMILES | solubility (mole fraction)
O=[N+]([O-])c1cn[nH]c1 | 0.047
